Endpoint summary: IC50, system: MALT1 (Homo sapiens), multiple sources combined.
Sequence (Q9UDY8 whole entry): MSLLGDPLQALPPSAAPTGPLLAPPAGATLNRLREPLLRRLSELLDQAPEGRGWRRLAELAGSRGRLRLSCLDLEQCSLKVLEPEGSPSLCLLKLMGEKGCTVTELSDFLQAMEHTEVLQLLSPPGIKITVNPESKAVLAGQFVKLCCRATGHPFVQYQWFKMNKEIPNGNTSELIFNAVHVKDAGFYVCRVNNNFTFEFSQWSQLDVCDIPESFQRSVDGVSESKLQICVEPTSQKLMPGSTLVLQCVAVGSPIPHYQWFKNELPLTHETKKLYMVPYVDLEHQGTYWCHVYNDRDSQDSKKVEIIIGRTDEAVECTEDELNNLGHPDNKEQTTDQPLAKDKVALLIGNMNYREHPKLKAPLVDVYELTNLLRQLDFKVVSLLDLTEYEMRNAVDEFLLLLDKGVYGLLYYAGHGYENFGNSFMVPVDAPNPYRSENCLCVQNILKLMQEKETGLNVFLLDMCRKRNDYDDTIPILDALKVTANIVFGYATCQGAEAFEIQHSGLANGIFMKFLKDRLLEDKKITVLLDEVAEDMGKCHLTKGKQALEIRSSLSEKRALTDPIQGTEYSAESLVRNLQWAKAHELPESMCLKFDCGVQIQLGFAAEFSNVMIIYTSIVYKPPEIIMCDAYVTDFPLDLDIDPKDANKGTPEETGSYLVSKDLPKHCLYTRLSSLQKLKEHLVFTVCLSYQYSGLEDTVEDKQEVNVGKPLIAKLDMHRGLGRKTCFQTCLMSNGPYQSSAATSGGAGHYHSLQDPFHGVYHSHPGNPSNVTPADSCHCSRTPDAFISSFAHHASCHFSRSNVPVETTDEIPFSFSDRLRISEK
Flag rule - IC50 less than 600 nM flags TRUE; the remaining entries get FALSE.

Recorded results for 3 molecules are shown here.
{"molecule": "O=C(Nc1cnc(-n2nccn2)c(Cl)c1)c1cnn(-c2cccc3nc([C@H]4CCCO4)ccc23)c1C(F)(F)F (single isomer, unassigned)", "label class": "FALSE"}
{"molecule": "Cc1cc(S(C)(=O)=O)ccc1-n1ncc(C(=O)Nc2cnc(-n3nccn3)c(Cl)c2)c1C(F)(F)F", "label class": "FALSE"}
{"molecule": "O=C(Nc1cnc(-n2nccn2)c(Cl)c1)c1c(C(F)(F)F)c(-c2ccccc2)nn1C1CC1", "label class": "TRUE"}

Quick check: does "CC(=O)c1cc(-n2ncc(C(=O)Nc3cnc(-n4nccn4)c(Cl)c3)c2C(F)(F)F)c2ccccc2n1" have IC50 under 600 nM? TRUE

Another molecule to look at: "Cc1cc(-c2nn(C)c(C(=O)Nc3ccnc(C(F)(F)F)c3)c2C(F)(F)F)n2ccnc2c1" FALSE

Now try "N#Cc1cc(NC(=O)c2cnn(-c3cncc4c(F)cccc34)c2C(F)(F)F)cnc1-n1nccn1" . TRUE

Ok, now "Cc1ccc(-n2ncc(C(=O)Nc3cnc(-n4nccn4)c(Cl)c3)c2C(F)(F)F)cc1" FALSE

// repeat for "Cn1nc(-c2cccc3ncn(C)c23)c(C(F)(F)F)c1C(=O)Nc1ccnc(C(F)(F)F)c1" and report TRUE

And what about the molecule "Cc1cc(C#N)ccc1-n1ncc(C(=O)Nc2cnc(-n3nccn3)c(Cl)c2)c1C(F)(F)F" ? TRUE
